Literature roundup of Cannabinoid receptor 1 (Homo sapiens, UniProt P21554) data, read-out pKi.
pKi: −log10 of the molar value.
Outcome: label 1 for pKi of at least 7; label 0 for anything lower.

| Molecule | Tested on | Class |
| --- | --- | --- |
| O=C(NC1CCCCC1)N1CCN(C(c2cccc(Cl)c2)c2ccc(Cl)cc2Cl)CC1 (centres undefined) | Cannabinoid receptor 1 (Homo sapiens, UniProt P21554) | label 1 |
| O=C1C(c2ccccc2)N(c2ccc(Cl)cc2)C(=S)N1c1ccc(Cl)cc1 (centres undefined) | Cannabinoid receptor 1 (Homo sapiens, UniProt P21554) | label 0 |
| COc1ccccc1N1CCN(C(=O)C(C)Sc2nc(-c3ccccc3)cc(C(F)(F)F)n2)CC1 (centres undefined) | Cannabinoid receptor 1 (Homo sapiens, UniProt P21554) | label 0 |
| COC(=O)c1c(C)oc(C)c1S(=O)(=O)N1CCN(C2c3ccccc3-c3ccccc32)CC1 | Cannabinoid receptor 1 (Homo sapiens, UniProt P21554) | label 0 |
| CN=C(NS(=O)(=O)N1CCCC1)N1CC(c2ccccc2)C(c2ccc(Cl)cc2)=N1 (centres undefined) | Cannabinoid receptor 1 (Homo sapiens, UniProt P21554) | label 0 |

[ask] Evaluate COc1cc(CNC(=O)c2nn(-c3ccc(Cl)cc3Cl)c(-n3cccc3)c2C)c(Br)c(OC)c1OC : pKi at minimum 7?
[reply] label 0

[ask] Evaluate COc1ccc(S(=O)(=O)c2cc(OC)ccc2S(=O)(=O)c2ccc([C@H](C)NC(C)=O)cc2)cc1 : pKi at minimum 7?
[reply] label 0

[ask] Evaluate COc1ccc(-c2c(C#N)c(C(=O)NN3CCCCC3)nn2-c2ccc(Cl)cc2Cl)cc1 : pKi at minimum 7?
[reply] label 1
